Quick reference: viability at 20 µM of the listed items.
- EXPERIMENTAL_DETAILS: Cytotoxicity against human THP1 cells assessed as cell viability at 20 uM after 48 hrs by tryphan blue dye exclusion assay relative to control
- Format: functional
- ASSAY_SETUP: THP-1, 48 h, read-out: Activity
Reply with just the number (in %).

{"columns": ["COMPOUND_STRUCTURE", "QUANTITATIVE_READOUT"],
 "data": [
  ["CN1C(C(=O)/C=C/c2cn(CC(=O)Nc3c(F)cccc3F)nn2)=C(O)c2ccccc2S1(=O)=O", 95.6],
  ["CN1C(C(=O)/C=C/c2cn(CC(=O)Nc3cccc(C(F)(F)F)c3)nn2)=C(O)c2ccccc2S1(=O)=O", 96.2],
  ["CN1C(C(=O)/C=C/c2cn(CC(=O)Nc3ccc(F)cc3Br)nn2)=C(O)c2ccccc2S1(=O)=O", 93.6],
  ["CCCCCCCCn1cc(/C=C/C(=O)C2=C(O)c3ccccc3S(=O)(=O)N2C)nn1", 92.3],
  ["CN1C(C(=O)/C=C/c2cn(-c3ccccc3)nn2)=C(O)c2ccccc2S1(=O)=O", 94.2]
]}

--- query ---
Please supply the value of reported viability at 20 µM for the item COc1cccc(-n2cc(/C=C/C(=O)C3=C(O)c4ccccc4S(=O)(=O)N3C)nn2)c1
94.2
